B1: Hairpin Ribozyme (parent)
chain: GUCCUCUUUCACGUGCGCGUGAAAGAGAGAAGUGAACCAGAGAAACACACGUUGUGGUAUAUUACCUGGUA

- Variants of: B1
- method summary: self-cleavage, relative activity (ratio to wild type); higher = more cleavage; co-transcriptional
Threshold check on self-cleavage: at or above 0.3 gives 1, strictly below gives -1.

[
  {
    "mutant label": "A26G C46U",
    "category label": -1
  },
  {
    "mutant label": "A26C A36G",
    "category label": 1
  },
  {
    "mutant label": "G19A A30G",
    "category label": -1
  },
  {
    "mutant label": "G21C G68U",
    "category label": -1
  },
  {
    "mutant label": "U2A G51U",
    "category label": -1
  },
  {
    "mutant label": "C10G A71U",
    "category label": 1
  },
  {
    "mutant label": "G34C U62C",
    "category label": 1
  },
  {
    "mutant label": "G13U U52C",
    "category label": 1
  },
  {
    "mutant label": "C18U G29U",
    "category label": -1
  },
  {
    "mutant label": "A24U C50A",
    "category label": 1
  },
  {
    "mutant label": "A23G A59C",
    "category label": -1
  },
  {
    "mutant label": "A64G U67G",
    "category label": -1
  },
  {
    "mutant label": "G15C A43G",
    "category label": -1
  },
  {
    "mutant label": "A35G U58A",
    "category label": 1
  },
  {
    "mutant label": "U52C U70G",
    "category label": 1
  },
  {
    "mutant label": "U60C U67C",
    "category label": 1
  },
  {
    "mutant label": "A22U A39U",
    "category label": 1
  },
  {
    "mutant label": "U9C A35G",
    "category label": 1
  },
  {
    "mutant label": "A26U U63C",
    "category label": -1
  },
  {
    "mutant label": "G15U U67G",
    "category label": 1
  },
  {
    "mutant label": "U9A C12U",
    "category label": 1
  },
  {
    "mutant label": "A45U G68U",
    "category label": -1
  }
]
